# System Under Test: HIV-1 protease (Human immunodeficiency virus type 1 group M subtype B, UniProt P04585)
# Protocol: Inhibition constants against HIV-1 protease (method of Pennington et al.)
# Format: biochemical
# Assay Setup: HIV-1 protease; read-out: Ki value
Please provide measured log10 of Ki for the entries that follow.
A difference of one corresponds to tenfold Ki; all values are log10 with Ki in nM.

Example results:
Molecule	System Under Test	Recorded Number
CC(=O)Nc1ccc(S(=O)(=O)N(CC(C)C)C[C@@H](O)[C@H](Cc2ccccc2)NC(=O)C(NC(N)=O)NC(N)=O)cc1 [Compound 67]	HIV-1 protease (Human immunodeficiency virus type 1 group M subtype B, UniProt P04585)	3.87
CC(C)CN(C[C@@H](O)[C@H](Cc1ccccc1)NC(=O)O[C@H]1CCOC1)S(=O)(=O)c1cccc(S(N)(=O)=O)c1 [Compound 112]	HIV-1 protease (Human immunodeficiency virus type 1 group M subtype B, UniProt P04585)	0.60
CC(=O)Nc1ccc(S(=O)(=O)N(CC(C)C)CC(O)C(Cc2ccccc2)NC(=O)C(CC(N)=O)NC(=O)c2ccc3ccccc3n2)cc1 (stereo not shown) [Compound 193]	HIV-1 protease (Human immunodeficiency virus type 1 group M subtype B, UniProt P04585)	2.60
NC(=O)C[C@H](NC(=O)c1ccc2ccccc2n1)C(=O)N[C@@H](Cc1ccccc1)[C@H](O)CN(Cc1ccccc1)S(=O)(=O)c1cccc(C(F)(F)F)c1 [Compound 4]	HIV-1 protease (Human immunodeficiency virus type 1 group M subtype B, UniProt P04585)	1.28
CC(=O)Nc1ccc(S(=O)(=O)N(CC(C)C)C[C@@H](O)[C@H](Cc2ccccc2)NC(=O)O[C@H]2CCOC2)cc1 [Compound 48]	HIV-1 protease (Human immunodeficiency virus type 1 group M subtype B, UniProt P04585)	0.15

Fill in log10 of Ki for each of the 5 molecules listed.
1. CC(=O)Nc1cc(S(=O)(=O)N(CC(C)C)C[C@@H](O)[C@H](Cc2ccccc2)NC(=O)O[C@H]2CCOC2)ccc1F [Compound 88]
2. O=C1N[C@H](COC(=O)N[C@@H](Cc2ccccc2)[C@H](O)CN(CC2CCCC2)S(=O)(=O)c2ccc(Cl)cc2)CO1 [Compound 139]
3. CC(=O)Nc1ccc(S(=O)(=O)N(CC(C)C)C[C@@H](O)[C@H](Cc2ccccc2)NC(=O)[C@@H]2CCC(=O)N2)cc1 [Compound 43]
4. CC(C)CN(C[C@@H](O)[C@H](Cc1ccccc1)NC(=O)O[C@H]1CCOC1)S(=O)(=O)c1ccc(O)cc1 [Compound 175]
5. CCC(C)C(NC(=O)c1cnc2ccccc2n1)C(=O)NC(Cc1ccccc1)C(O)CN(CC(C)C)S(=O)(=O)c1ccc(F)c(NC(C)=O)c1 (stereo not shown) [Compound 188]

1. 0.15
2. 0.08
3. 3.62
4. -1.00
5. 1.06

Fill in log10 of Ki for each of the 2 molecules listed.
1. CN(C[C@@H](O)[C@H](Cc1ccccc1)NC(=O)OC(C)(C)C)S(=O)(=O)c1ccc(Cl)c(Cl)c1 [Compound 126]
2. CC(C)CN(C[C@@H](O)[C@H](Cc1ccccc1)NC(=O)[C@H](CC(N)=O)NC(=O)c1ccc2ccccc2n1)S(=O)(=O)c1cccc2nonc12 [Compound 20]

1. 2.49
2. -1.00

Returns the measured log10 of Ki for the input molecule. Input: CC(=O)Nc1ccc(S(=O)(=O)N(CC(C)C)CC(O)[C@H](Cc2ccccc2)NC(=O)C(CC(N)=O)C(=O)OCc2ccncc2)cc1 (stereo partly shown) [Compound 23]
0.18

====

# System Under Test: HIV-1 protease (Human immunodeficiency virus type 1 group M subtype B, UniProt P04585)
# Protocol: Inhibition constants against HIV-1 protease (method of Pennington et al.)
# Type: biochemical
# Assay Setup: HIV-1 protease; read-out: Ki value
Please provide measured Ki for the entries that follow.
One number for each entry, in nM.

                            chemical_string  property_name  recorded_number
0  CN(C)S(=O)(=O)N(Cc1ccccc1)C[C@@H](O)[C@H](Cc1ccccc1)NC(=O)[C@H](CC(N)=O)NC(=O)c1ccc2ccccc2n1             Ki               34
1  CC(C)CN(C[C@@H](O)[C@H](Cc1ccccc1)NC(=O)OC[C@@H]1COC(=O)N1)S(=O)(=O)c1ccc(F)cc1             Ki                6
2  COc1ccc(S(=O)(=O)N(CC(C)C)C[C@@H](O)[C@H](Cc2ccccc2)NC(=O)OCc2cccnc2)cc1             Ki              0.2
3  C=C(C)CN(C[C@@H](O)[C@H](Cc1ccccc1)NC(=O)O[C@H]1CCOC1)S(=O)(=O)c1ccc(F)cc1             Ki              2.7
4  C=CCOC(=O)N[C@@H](Cc1ccccc1)[C@H](O)CN(CC1CCCC1)S(=O)(=O)c1ccc(Cl)cc1             Ki             0.26
5  COc1ccc(S(=O)(=O)N(CC2CCCC2)C[C@@H](O)[C@H](CC2CCCCC2)NC(=O)O[C@H]2CCOC2)cc1             Ki              0.2
6  CC(C)CN(C[C@@H](O)[C@H](Cc1ccccc1)NC(=O)O[C@H]1CCOC1)S(=O)(=O)c1ccc(OC(F)(F)F)cc1             Ki              2.5
7  COc1ccc(S(=O)(=O)N(CC2CCCC2)C[C@@H](O)[C@H](Cc2ccccc2)NC(=O)O[C@@H]2CCN(C(=O)OC(C)(C)C)C2)cc1             Ki                5

Fill in Ki for each of the 3 compounds listed.
1. CC(=O)Nc1ccc(S(=O)(=O)N(CC(C)C)C[C@@H](O)[C@H](Cc2ccccc2)NC(=O)C(=O)C(C)(C)C)cc1
2. COc1ccc(S(=O)(=O)N(CC(C)C)C[C@@H](O)[C@H](Cc2ccccc2)NC(=O)O[C@H]2CCOC2)cc1
3. CC(=O)Nc1ccc(S(=O)(=O)N(CC(C)C)C[C@@H](O)[C@H](Cc2ccccc2)NC(=O)C[C@H]2CNC(=O)C2)cc1

220
0.16
28

Returns the measured Ki for the input compound. Input: `CS(=O)(=O)N(Cc1ccccc1)C[C@@H](O)[C@H](Cc1ccccc1)NC(=O)[C@H](CC(N)=O)NC(=O)c1ccc2ccccc2n1`
850

====

# System Under Test: HIV-1 protease (Human immunodeficiency virus type 1 group M subtype B, UniProt P04585)
# Protocol: Inhibition constants against HIV-1 protease (method of Pennington et al.)
# Assay type: biochemical
# Assay Setup: HIV-1 protease; read-out: Ki value
Please provide measured Ki for the entries that follow.
One number for each entry, in nM.

Example results:
>>> df
                                   compound                         system_under_test  recorded_number
0  CC(C)CN(C[C@@H](O)[C@H](Cc1ccccc1)NC(=O)O[C@H]1CCOC1)S(=O)(=O)c1ccc(O)c(N)c1  HIV-1 protease (Human immunodeficiency virus type 1 group M subtype B, UniProt P04585)              0.2
1  COc1ccc(S(=O)(=O)N(CC(C)C)C[C@@H](O)[C@H](Cc2ccccc2)NC(=O)O[C@H]2CCOC2)cc1OC  HIV-1 protease (Human immunodeficiency virus type 1 group M subtype B, UniProt P04585)               10
2  N#Cc1ccc(S(=O)(=O)N(CC2CCCC2)C[C@@H](O)[C@H](Cc2ccccc2)NC(=O)O[C@H]2CCOC2)cc1  HIV-1 protease (Human immunodeficiency virus type 1 group M subtype B, UniProt P04585)              0.3

Fill in Ki for each of the 2 compounds listed.
1. CCC(C)C(NC(=O)OCc1ccccc1)C(=O)NC(Cc1ccccc1)C(O)CN(CC(C)C)S(=O)(=O)c1ccc(F)c(NC(C)=O)c1 (stereo not drawn)
2. CC(C)CN(CC(O)[C@H](Cc1ccccc1)NC(=O)[C@H](CC(N)=O)NC(=O)c1ccc2ccccc2n1)S(=O)(=O)c1ccc(-c2ccccn2)s1 (stereo partly drawn)

0.3
0.1

====

# System Under Test: HIV-1 protease (Human immunodeficiency virus type 1 group M subtype B)
# Protocol: Inhibition constants against HIV-1 protease (method of Pennington et al.)
# Format: biochemical
# Assay Setup: HIV-1 protease; read-out: Ki value
Please provide measured Ki for the entries that follow.
One number for each entry, in nM.

Example results:
In [3]: df
Out[3]:
                                   compound  property_name  recorded_number
0  CC(C)CN(C[C@@H](O)[C@H](Cc1ccccc1)NC(=O)O[C@H]1CCOC1)S(=O)(=O)c1ccc(OCc2ccccc2)cc1             Ki               10
1  COC(=O)N[C@@H](Cc1ccccc1)[C@H](O)CN(CC(C)C)S(=O)(=O)c1ccc(NC(C)=O)cc1             Ki               33
2  CC(=O)Nc1ccc(S(=O)(=O)N(CC(C)C)C[C@@H](O)[C@H](Cc2ccccc2)NC(=O)OCc2cccnc2)cc1             Ki                5
3  CC(C)CN(C[C@@H](O)[C@H](Cc1ccccc1)NS(=O)(=O)N(C)C)S(=O)(=O)N(C)C             Ki             4000
4  CC(C)(C)OC(=O)NC(Cc1ccccc1)C(O)CN(CC1CCCO1)S(=O)(=O)c1ccc(F)cc1 (stereo not drawn)             Ki               19
5  C=C(C)COC(=O)N[C@@H](Cc1ccccc1)[C@H](O)CN(CC(C)C)S(=O)(=O)c1ccc(F)cc1             Ki              1.4
6  COc1ccc(S(=O)(=O)N(C[C@@H](O)[C@H](Cc2ccccc2)NC(=O)O[C@H]2CCOC2)C2CCNCC2)cc1             Ki             1500
7  CC(C)CN(C[C@@H](O)[C@H](Cc1ccccc1)NC(=O)O[C@H]1CCOC1)S(=O)(=O)c1ccc(F)cc1             Ki                4
8  CC(C)CN(CC(O)C(Cc1ccccc1)NC(=O)C(CC(N)=O)NC(=O)c1ccc2ccccc2n1)S(=O)(=O)c1ccc(-c2ccon2)s1 (stereo not drawn)             Ki              350
9  C=CCOC(=O)N[C@@H](Cc1ccccc1)[C@H](O)CN(CC1CCCC1)S(=O)(=O)c1ccc(F)cc1             Ki             0.35

Fill in Ki for each of the 3 compounds listed.
1. CC(=O)Nc1ccc(S(=O)(=O)N(CC2CCCC2)C[C@@H](O)[C@H](Cc2ccccc2)NC(=O)O[C@H]2CCOC2)cc1
2. CC(C)CN(C[C@@H](O)[C@H](Cc1ccccc1)NC(=O)O[C@H]1CCOC1)S(=O)(=O)c1cccc(Cl)c1
3. CC(=O)Nc1ccc(S(=O)(=O)N(CC(C)C)C[C@@H](O)[C@H](Cc2ccccc2)NC(=O)C(C)(C)NC(=O)OC(C)(C)C)cc1

0.3
1.4
5500
